Provide the recorded cytotoxicity at 10 µM for the entries that follow.
- ASSAY_NOTES: Toxicity liver stage against HepG2, at 10uM
- Assay type: cell-based
- Design: test concentration 10 uM, cell line HepG2-A16-CD81EGFP
- CONDITION_SET: human, HepG2-A16-CD81EGFP cells; read-out: INHIBITION
Give bare numbers, in %.

Consider the worked cases shown below.
1. Cc1nn(C)c(N(C)C)c1CNCc1ccccc1CN(C)C = -0.553
2. CCC(O)CN1CCN(C(=O)C2(c3ccc(C)c(OC)c3)CC2)CC1 (stereo unspecified) = 3.83
3. O=C(NC[C@H]1OC[C@@H](NCc2ccccn2)[C@@H]1O)N1CCOCC1 = 0.15

Please look at the items below and tell me cytotoxicity at 10 µM for each one, in order.
1. Cc1cccc(CN2CCC3(CCN(c4ncccn4)C3)C2=O)c1 (stereo unspecified)
2. CCN1CC[C@@]2(C(=O)N3CCOCC3)CCN(C(=O)CC(C)C)CC[C@@H]12
3. O=C1CO[C@@H]2CN(CC3CC3)C[C@H]2N1Cc1cccc(F)c1
4. Cc1ccc(NC(=O)N2CCOC(C(N)=O)C2)cc1C(F)(F)F (stereo unspecified)
5. COc1cccc2ccc(CN3CCN(c4ncccc4C)CC3)nc12

1: 1.44; 2: 3.56; 3: -69.9; 4: -146; 5: -5.21

Please look at the items below and tell me cytotoxicity at 10 µM for each one, in order.
1. CCN1CCC2(CC1)CC(Nc1ncccn1)CO2 (stereo unspecified)
2. CCc1nnc(SCC(=O)Nc2cc(C(C)(C)C)nn2C)[nH]1
3. CC(C)OCCN(Cc1cccc(O)c1)C1CCC(O)CC1 (stereo unspecified)

-21.6
7.28
5.81

* * *

- ASSAY_NOTES: Toxicity liver stage against HepG2, at 10uM
- Assay type: cell-based
- Set-up: test concentration 10 uM, cell line HepG2-A16-CD81EGFP
- CONDITION_SET: human, HepG2-A16-CD81EGFP cells; read-out: INHIBITION
Provide the recorded cytotoxicity at 10 µM for the entries that follow.
Numbers only, in %.

Consider the worked cases shown below.
1) CC1CCCN1Cc1cccc(C(=O)Nc2ccc3[nH]c(=O)oc3c2)c1 (stereo not drawn) = -13.4
2) CCCS(=O)(=O)N1Cc2ccnn2CC(c2nc(C)no2)C1 (stereo not drawn) = 5.98

cytotoxicity at 10 µM reading for Cc1nonc1N1CCN(Cc2nc(CC3CC3)no2)CC1 : 9.34

* * *

- ASSAY_NOTES: Toxicity liver stage against HepG2, at 10uM
- Assay type: cell-based
- Design: test concentration 10 uM, cell line HepG2-A16-CD81EGFP
- CONDITION_SET: human, HepG2-A16-CD81EGFP cells; read-out: INHIBITION
ASSAY_METRIC: cytotoxicity at 10 µM (%)
Numbers only, in %.

Please look at the items below and tell me cytotoxicity at 10 µM for each one, in order.
1. CN(Cc1ccncc1)C1COC2(CCN(Cc3nccn3C)CC2)C1 (stereo unspecified)
2. CC(=O)N(C)Cc1ccccc1NCc1c(C)cccc1C
3. CC(C)c1nn(C)c(N2CCOCC2)c1CN[C@H](C)CO
4. O=C1CC(c2cccs2)c2cnn(C3CCCC3)c2N1 (stereo unspecified)

1: -98.7; 2: -4.54; 3: -7.67; 4: 23.3

Please look at the items below and tell me cytotoxicity at 10 µM for each one, in order.
1. Cc1ccc(CN(C)C(=O)CN2CCCC(Cn3cncn3)C2)cc1 (stereo unspecified)
2. COC(=O)CNC(=O)c1cn(Cc2ccccc2F)nn1
3. COc1ccc(C2CCCN2C(=O)NCCn2ccnc2)cc1 (stereo unspecified)
4. O=C(NC1(c2nccs2)CCCC1)c1cc(C2CC2)on1
5. Cc1nc(CN2C[C@@H]3CN(c4ncc(F)cn4)C[C@@H]3C2=O)cs1

1: -6.41; 2: 4.98; 3: -9.13; 4: 6.65; 5: -0.673

* * *

- ASSAY_NOTES: Toxicity liver stage against HepG2, at 10uM
- Type: cell-based
- Set-up: test concentration 10 uM, cell line HepG2-A16-CD81EGFP
- CONDITION_SET: human, HepG2-A16-CD81EGFP cells; read-out: INHIBITION
Provide the recorded cytotoxicity at 10 µM for the entries that follow.
Answers are plain numbers, in %.

1. Cc1cc(C)c2c(OCC(=O)N(C)CC(=O)NC(C)C)nn(C)c2n1 = 1.28
2. CC1CN(CC(=O)NCc2ccccc2)CCN1Cc1nccn1C (stereo not given) = -16.2
3. O=C(N[C@@H]1CN(Cc2cccs2)[C@@H]2CCCO[C@@H]21)c1cscn1 = -4.6
4. CCC(=O)N1CCC2(CCC(N3CCCC3)c3ccccc32)CC1 (stereo not given) = -6.23
5. COc1c(C2CCCN2C(=O)c2ccnn2C)c(C)nn1C (stereo not given) = 2.55

Please look at the items below and tell me cytotoxicity at 10 µM for each one, in order.
1. N#Cc1ccc(N2CCC3(CCC(=O)N3Cc3ccncc3)CC2)nc1
2. CCc1nnc(CN(C)C(=O)CN2CC(c3ccccc3)CC2=O)o1 (stereo not given)

1: -109; 2: -2.96

Please look at the items below and tell me cytotoxicity at 10 µM for each one, in order.
1. CCn1cnnc1CNC(=O)c1cc(F)ccc1OC
2. O=C1OCCN1Cc1cccc(F)c1C(F)(F)F
3. COc1cccc(CNC(=O)C(C)n2ccnc2C(C)C)c1OC (stereo not given)
4. Cc1nn(C)c(N(C)C)c1CNCc1nnc2n1CCCCC2
5. Cc1cnn(CCNCc2nnc(-c3ccccc3)o2)c1
6. CCN1C(=O)C(c2ccccc2)CC12CCN(CCO)CC2 (stereo not given)

-14.3
2.61
-1.68
-5.68
-10.4
1.26

Please look at the items below and tell me cytotoxicity at 10 µM for each one, in order.
1. CN(C)C1CCN(C(=O)c2ccnn2-c2ccc3ccccn23)CC1
2. Cn1c(C(=O)NC(Cc2ccsc2)c2cccnc2)cc(=O)n(C)c1=O (stereo not given)

-114
2.61

* * *

Provide the recorded cytotoxicity at 10 µM for the entries that follow.
- ASSAY_NOTES: Toxicity liver stage against HepG2, at 10uM
- Type: cell-based
- Set-up: test concentration 10 uM, cell line HepG2-A16-CD81EGFP
- CONDITION_SET: human, HepG2-A16-CD81EGFP cells; read-out: INHIBITION
One number for each entry, in %.

Consider the worked cases shown below.
1. c1cc(CN2CCN(Cc3cscn3)CC2)cs1 = 2.45
2. COCCN(Cc1ccoc1)S(=O)(=O)c1ccc(F)c(Cl)c1 = -7.93
3. COCCC(=O)N1CCCC1c1nc(O)cc(-c2ccccn2)n1 (configuration not stated) = -5.86
4. COc1ccc(N(C)C(=O)C2CN(C)CCO2)cc1F (configuration not stated) = -41.8
5. Cn1cccc1C(=O)N1CCCC1c1ccc(CN2CCOCC2)cn1 (configuration not stated) = 1.43

Please look at the items below and tell me cytotoxicity at 10 µM for each one, in order.
1. CCC(=O)Nc1cc(Br)cnc1OCC(F)(F)F
2. CCn1ccnc1CN1CCN(CCOc2cccc(C#N)c2)CC1

[-1.24, -6.95]

* * *

- ASSAY_NOTES: Toxicity liver stage against HepG2, at 10uM
- Assay type: cell-based
- Design: test concentration 10 uM, cell line HepG2-A16-CD81EGFP
- CONDITION_SET: human, HepG2-A16-CD81EGFP cells; read-out: INHIBITION
ASSAY_METRIC: cytotoxicity at 10 µM (%)
Answers are plain numbers, in %.

Please look at the items below and tell me cytotoxicity at 10 µM for each one, in order.
1. Cc1csc2c(=O)n3c(nc12)CCN(C(=O)c1ccnn1C)CC3
2. O=C(NCC1(O)CCOCC1)c1ccn(-c2ccccc2F)n1
3. Cc1cc(C(=O)NCc2ccnc(N3CCN(C)CC3)c2)sc1C

[-9.35, -0.636, -11.7]

* * *

Provide the recorded cytotoxicity at 10 µM for the entries that follow.
- ASSAY_NOTES: Toxicity liver stage against HepG2, at 10uM
- Assay type: cell-based
- Set-up: test concentration 10 uM, cell line HepG2-A16-CD81EGFP
- CONDITION_SET: human, HepG2-A16-CD81EGFP cells; read-out: INHIBITION
Answers are plain numbers, in %.

Consider the worked cases shown below.
1) Cc1n[nH]c(C)c1CNc1ccc(-c2nc(C3CC3)no2)cn1 = -24.3
2) COc1ccc(CN(C)[C@@H]2CN(C(=O)c3cccs3)C[C@H]2O)cc1 = -0.619
3) Cc1nc(O)cc(C2CCN(C(=O)CN(C)c3ccccc3)CC2)n1 = 8.92
4) CCC(O)Cn1nc(CCSC)nc1-c1ccc2[nH]ccc2c1 (centres undefined) = 4.96
5) CC(C)(C)OC(=O)N1CCCN1C(=O)c1cccc(F)c1F = -10.3

Please look at the items below and tell me cytotoxicity at 10 µM for each one, in order.
1. Cc1nccn1[C@@H]1CC[C@@H](NC(=O)CCCn2cccn2)[C@H]1O
2. CCCn1nc2c(cc1=O)CN(Cc1nnc(C3CC3)o1)CC2
3. CCN1CCN(c2ccc(CNC(=O)c3c(C)noc3C)cn2)CC1
4. CN(C)C(=O)c1ccc(OC2CCOCC2)cc1

-6.28
2.11
0.265
-2

Please look at the items below and tell me cytotoxicity at 10 µM for each one, in order.
1. Cn1cccc1C(=O)NC(C)(C(N)=O)c1cccc(C(F)(F)F)c1 (centres undefined)
2. O=C(CN1CCC(c2nnc(C(F)(F)F)o2)CC1)NCc1ccccc1

[3.61, 2.51]

Please look at the items below and tell me cytotoxicity at 10 µM for each one, in order.
1. CN1C[C@H](c2ccccc2)[C@H]2CN(C(=O)Cc3cccc(O)c3)CC[C@H]21
2. Cc1ncsc1C(=O)NCc1ccnc(OCC(F)(F)F)c1
3. CSc1ccc(CN(C(=O)c2cc[nH]n2)C2CC2)cc1

4.98
-1.37
-44.4
